Biological target: TEV protease (Tobacco etch virus)
Construct: Proteolytic cleavage was initiated by the addition of TEV protease (20U, Gibco Life Technologies); histidine tag; purchased Gibco Life Technologies
Sequence (P04517 2038-2279): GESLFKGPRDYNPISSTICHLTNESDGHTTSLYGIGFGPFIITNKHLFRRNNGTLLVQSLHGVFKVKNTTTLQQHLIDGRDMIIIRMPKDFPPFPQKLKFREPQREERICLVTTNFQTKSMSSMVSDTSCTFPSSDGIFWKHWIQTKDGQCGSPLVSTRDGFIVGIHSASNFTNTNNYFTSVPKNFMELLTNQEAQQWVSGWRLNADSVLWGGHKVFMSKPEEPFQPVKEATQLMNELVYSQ
Assay: TEV protease FRET assay with homodimer-forming reporter peptide
Assay type: biochemical
Conditions: 0.05-100 mM iodacetamide added prior to TEV protease; 6 μM reporter peptide, 30° C.; FIG. 9; read-out: IC50 value (TEV protease inhibitor iodacetamide) as determined by FRET analysis
PROPERTY_LABEL: IC50 (µM)
Give bare numbers, in µM.

Q) What IC50 appears in the records for this compound with TEV protease (Tobacco etch virus)? NC(=O)CI [iodacetamide, reference compound]
A) 885

From: patent US6828106B2
